# target entity: DYRK1A (Homo sapiens (Human))
# procedure text: DYRK1A activity Tau assay: pSer396 Tau in SH-SY5Y cells by ELISA / western blot
# test context: overnight (16-18 h) exposure
Measured pEC50 of individual entries
// pEC50 here means minus log10 of the molar concentration (mol/L)

Examples from the recorded data:
- smiles: "O=C(Nc1ccc(CN2CCCC2)cc1)c1n[nH]c2ccc(-c3cncc(Cl)c3)cc12"
  reading: 8.52
- smiles: "O=C(Nc1ccc(F)cn1)c1n[nH]c2ccc(-c3cncc(CN4CCCCC4)c3)cc12"
  reading: 8.70
- smiles: "O=C(NC1CCCC1)c1n[nH]c2ccc(-c3cncc(F)c3)cc12"
  reading: 7.49
- smiles: "CC(C)CN1CC(NC(=O)c2n[nH]c3ccc(-c4cncc(F)c4)cc23)C1"
  reading: 7.55
- smiles: "O=C(NC1CCN(CC2CC2)CC1)c1n[nH]c2ccc(-c3cncc(Cl)c3)cc12"
  reading: 7.48
- smiles: "O=C(Nc1ccc(CN2CCCC2)cc1)c1n[nH]c2ccc(-c3cncc(F)c3)cc12"
  reading: 9.00
- smiles: "COc1ccc(NC(=O)c2n[nH]c3ccc(-c4cncc(N5CC(N)C5)n4)cc23)cn1"
  reading: 8.70

Now for a further molecule.
Query :: # input molecule: CN(C)[C@H]1CC[C@H](NC(=O)c2n[nH]c3ccc(-c4cccnc4)cc23)CC1 ; wanted: its pEC50
Result :: 9.00
